System: RAW-Dual (murine macrophage reporter line)
test-summary: IRF reporter (Lucia luciferase) activity fold change vs agonist alone; higher = enhanced IRF activity
protocol-conditions: modulator concentration 10 µM; agonist: 3'3'-cGAMP 10 ug/mL
quantity-name: IRF reporter
// response body must contain only the number

Answered cases to consult:
CC(=O)N1CC(C(=O)Nc2ccc(Br)c(C)c2)C1	0.988
O=C(c1cc(C(F)(F)F)cc(C(F)(F)F)c1)N1CCOCC1CO (stereo not given)	0.969
Cc1c(OCc2ccc(Cl)cc2)ccc2c(C(F)(F)F)cc(=O)oc12	0.802
COc1ccc(C=NNC(=O)CSc2nnc(-c3ccccc3)n2-c2ccccc2)cc1OC	0.845
C1=C(c2ccccc2)Nc2nnnn2C1c1ccccc1 (stereo not given)	0.949
COC(=O)c1ccc(CN2CCc3ccccc3C2)cc1	0.832
O=C(O)CCC(=O)Nc1ccc(Br)cn1	1.02
CC(O)c1cn(-c2cccc(C(F)(F)F)c2)nn1 (stereo not given)	0.861

According to the records, this compound O=C(NCCC(CCO)c1ccccc1)Nc1c(F)cccc1F (stereo not given) displays IRF reporter of 0.972

According to the records, this compound `CCS(=O)(=O)N1CCC2(CC1)NC(=O)N(CCOc1ccccc1)C2=O` displays IRF reporter of 0.996

---

System: RAW-Dual (murine macrophage reporter line)
test-summary: NF-kB reporter (SEAP) activity fold change vs agonist alone; higher = enhanced NF-kB activity
protocol-conditions: modulator concentration 10 µM; agonist: LPS 0.1 ug/mL
quantity-name: NF-kB reporter

COc1c(Cl)ccc(Cl)c1C(=O)NCc1ccccc1	1.01

According to the records, this molecule `CN(C)[C@@H](CCOc1cccc2ccccc12)c1ccccc1.Cl` displays NF-kB reporter of 1.01

According to the records, this molecule Cc1cn2c(nc1=O)OC1C(O)C(CO)OC12 (stereo not given) displays NF-kB reporter of 1.02

According to the records, this molecule O=C(NCC1(O)CCc2ccccc2C1)Nc1ccccc1C(F)(F)F (stereo not given) displays NF-kB reporter of 1.02

According to the records, this molecule `Cl.O=S(=O)(c1cccc2cnccc12)N1CCCNCC1` displays NF-kB reporter of 1.01

---

Test system: RAW-Dual (murine macrophage reporter line)
test-summary: NF-kB reporter (SEAP) activity fold change vs agonist alone; higher = enhanced NF-kB activity
protocol-conditions: modulator concentration 10 µM; agonist: LPS 0.1 ug/mL
Each entry below carries its reported NF-kB reporter.

According to the records, this compound CC(CCc1ccccc1)NCC(O)c1ccc(O)c(C(N)=O)c1.Cl (centres undefined) displays NF-kB reporter of 1.18

According to the records, this compound CC(=O)NC(c1ccccc1)c1c(OC(=O)COc2ccccc2)ccc2ccccc12 (centres undefined) displays NF-kB reporter of 0.878

According to the records, this compound `CC(C)(C)c1cc(C(=O)Oc2cccc3cccnc23)cc(C(C)(C)C)c1` displays NF-kB reporter of 0.976

According to the records, this compound `COC(=O)[C@H](c1ccccc1Cl)N1CCc2sccc2C1.O=S(=O)(O)O` displays NF-kB reporter of 0.993

---

Test system: RAW-Dual (murine macrophage reporter line)
test-summary: NF-kB reporter (SEAP) activity fold change vs agonist alone; higher = enhanced NF-kB activity
protocol-conditions: modulator concentration 10 µM; agonist: MPLA […]
Each entry gets Criterion not met if its NF-kB reporter stays under 0.9, and Criterion met if its NF-kB reporter is 0.9 or above.

These solved cases illustrate the format of a correct answer.
CCOCCn1c(C2CCN(CCc3ccc(C(C)(C)C(=O)O)cc3)CC2)nc2ccccc21	Criterion met
CC1CCc2cc(F)cc3c(=O)c(C(=O)O)cn1c23 (stereo not drawn)	Criterion met
CC(NC(=O)C1CCN(S(=O)(=O)N2CCCC2)CC1)c1ccc(F)cc1 (stereo not drawn)	Criterion met
CC1=C(C(=O)N2CCOCC2)C(c2cccs2)NC(=O)N1 (stereo not drawn)	Criterion met
Nc1ccccc1S(N)(=O)=O [Prestw-913]	Criterion met
O=C(O)CCCN1CCC(O[C@@H](c2ccc(Cl)cc2)c2ccccn2)CC1.O=S(=O)(O)c1ccccc1	Criterion met
Cn1c(=O)cc(N2CCC[C@@H](N)C2)n(Cc2cc(F)ccc2C#N)c1=O.O=C(O)CCC(=O)O	Criterion not met
Fc1ccc(Nc2nc(NN=Cc3ccccc3F)nc(N3CCCCC3)n2)cc1	Criterion met
COC(=O)C1=C(C)N(c2ccc(Br)cc2)C(=O)C1=Cc1ccc(O)cc1	Criterion met
CC(C)NC(=O)CCn1c(=O)c2cc(Cl)ccc2n2c(SCc3ccc(F)cc3)nnc12	Criterion met

**Q:** Reported NF-kB reporter reaches at least 0.9 for `CNC(=O)c1ccccc1Sc1ccc2c(/C=C/c3ccccn3)n[nH]c2c1` ?
**A:** Criterion not met

**Q:** Reported NF-kB reporter reaches at least 0.9 for `Cc1c(NC(=S)NC(=O)c2ccccc2[N+](=O)[O-])cccc1-c1nc2ccccc2o1` ?
**A:** Criterion met

**Q:** Reported NF-kB reporter reaches at least 0.9 for CC(C)CN(CC(O)C(Cc1ccccc1)NC(=O)OC1COC2OCCC12)S(=O)(=O)c1ccc(N)cc1 (stereo not drawn) [Prestw-1802] ?
**A:** Criterion met

**Q:** Reported NF-kB reporter reaches at least 0.9 for `Cc1ccnc2c1NC(=O)c1cccnc1N2C1CC1` ?
**A:** Criterion met

**Q:** Reported NF-kB reporter reaches at least 0.9 for `COc1ccc(CC(=O)Nc2ccc(C)c(N3CCCCC3=O)c2)cc1OC` ?
**A:** Criterion met

**Q:** Reported NF-kB reporter reaches at least 0.9 for CC(C)NCC(O)COc1cccc2ccccc12.Cl (stereo not drawn) ?
**A:** Criterion met

**Q:** Reported NF-kB reporter reaches at least 0.9 for COc1cc2c(cc1OC)C1C(=O)c3ccc4c(c3OC1CO2)C=CC(C)(C)O4 (stereo not drawn) ?
**A:** Criterion met

**Q:** Reported NF-kB reporter reaches at least 0.9 for `Cc1nnc(NC(=O)c2ccccc2C(=O)O)s1` ?
**A:** Criterion met

**Q:** Reported NF-kB reporter reaches at least 0.9 for `COc1cccc(-n2c(SCc3ccc(F)cc3)nc3c([nH]c4ccccc43)c2=O)c1` ?
**A:** Criterion not met

**Q:** Reported NF-kB reporter reaches at least 0.9 for `O=C(c1ccccc1)c1cc([N+](=O)[O-])ccc1N1CCOCC1` ?
**A:** Criterion met

**Q:** Reported NF-kB reporter reaches at least 0.9 for Cl.O=C1c2cccc3c2C(CCC3)CN1C1CN2CCC1CC2 (stereo not drawn) ?
**A:** Criterion not met

**Q:** Reported NF-kB reporter reaches at least 0.9 for `NC(=O)c1ncn([C@@H]2O[C@H](CO)[C@@H](O)[C@H]2O)c1N` ?
**A:** Criterion met

**Q:** Reported NF-kB reporter reaches at least 0.9 for `O=C(C=Cc1ccc(-c2cccc(Cl)c2)o1)c1ccc(Cl)cc1` ?
**A:** Criterion not met

**Q:** Reported NF-kB reporter reaches at least 0.9 for `CN(C)CCN(Cc1ccccc1)c1ccccn1.Cl` ?
**A:** Criterion met

---

Tested on: RAW-Dual (murine macrophage reporter line)
test-summary: IRF reporter (Lucia luciferase) activity fold change vs agonist alone; higher = enhanced IRF activity
protocol-conditions: modulator concentration 10 µM; agonist: 3'3'-cGAMP 10 ug/mL
quantity-name: IRF reporter
// response body must contain only the number

Clc1cnc(NC2CCN(c3ncnc4c3CCCC4)CC2)nc1	0.698
CN1C[C@@H]2c3ccccc3Oc3ccc(Cl)cc3[C@H]2C1.O=C(O)/C=C\C(=O)O	0.475
S=c1n(CN2CCOCC2)nc(-c2ccccc2Cl)n1-c1ccccc1	0.944

# ---- query compound ----
According to the records, this compound `COc1cc(C=NNC(=O)c2ccc(OC)c(OC)c2)ccc1O` displays IRF reporter of 0.83

---

Test system: RAW-Dual (murine macrophage reporter line)
test-summary: IRF reporter (Lucia luciferase) activity fold change vs agonist alone; higher = enhanced IRF activity
protocol-conditions: modulator concentration 10 µM; agonist: LPS 0.1 ug/mL
Each entry below carries its reported IRF reporter.

O=C(C=Cc1ccc(O)cc1)c1ccc(O)cc1O	0.966

According to the records, this compound CC(C)Sc1ccc(CC(=O)N2CCC(S(C)(=O)=O)C2)cc1 (centres undefined) displays IRF reporter of 1.12

According to the records, this compound CN(C)CCC(c1ccc(Cl)cc1)c1ccccn1.O=C(O)/C=C\C(=O)O (centres undefined) displays IRF reporter of 1.23

According to the records, this compound `C=C1CCC(NS(=O)(=O)c2ccc(-c3coc(C)n3)cc2)CC1` displays IRF reporter of 1.14

---

Each entry below carries its reported IRF reporter.
Test system: RAW-Dual (murine macrophage reporter line)
test-summary: IRF reporter (Lucia luciferase) activity fold change vs agonist alone; higher = enhanced IRF activity
protocol-conditions: modulator concentration 10 µM; agonist: MPLA […]
// response body must contain only the number

Answered cases to consult:
Cn1nccc1-c1ccc(CNC(=O)c2cc(Br)cs2)cn1	1.53
COc1ccc(C(=O)NCCOc2cc(C)cc(C)c2)cc1OC	1.03
Oc1ccc(OCc2ccccc2)cc1	1.42
O=C(C=Cc1cccnc1)c1cc2ccc1CCc1ccc(cc1)CC2	1.03
COc1ccc(CNCc2cccc(C(F)(F)F)c2)cc1	1.37
O=C1c2ccc(-c3ccc4c(c3)C(=O)N(CCO)C4=O)cc2C(=O)N1CCO	1.24
N#Cc1nc(-c2ccc(COc3ccccc3)o2)oc1N1CCc2ccccc2C1	0.989
CCOC(=O)C(Oc1ccc2c(c1)oc(=O)c1cc(OC)ccc12)c1ccccc1 (stereo unspecified)	1.11

The measured IRF reporter that `COc1ccc(N(CC(=O)Nc2ccccc2C(F)(F)F)S(C)(=O)=O)cc1` showed for RAW-Dual (murine macrophage reporter line) is 0.962

The measured IRF reporter that OCC(O)CN1CCN(c2ccccc2)CC1 (stereo unspecified) showed for RAW-Dual (murine macrophage reporter line) is 0.982

The measured IRF reporter that OCCN(CCO)CC(O)Cn1c2ccc(Br)cc2c2cc(Br)ccc21 (stereo unspecified) showed for RAW-Dual (murine macrophage reporter line) is 1.35

The measured IRF reporter that O=C(NCC1(O)CCc2ccccc2C1)c1cccc(C(F)(F)F)c1 (stereo unspecified) showed for RAW-Dual (murine macrophage reporter line) is 1.12

The measured IRF reporter that `Clc1ccc2c(c1)CCc1cccnc1C2=C1CCNCC1` showed for RAW-Dual (murine macrophage reporter line) is 0.754

The measured IRF reporter that CCOC(=O)C1CCCN(S(=O)(=O)Cc2ccccc2)C1 (stereo unspecified) showed for RAW-Dual (murine macrophage reporter line) is 1.53

The measured IRF reporter that `Cc1c(C(=O)NN2CCCCC2)nn(-c2ccc(Cl)cc2Cl)c1-c1ccc(Cl)cc1` showed for RAW-Dual (murine macrophage reporter line) is 0.752

The measured IRF reporter that `Cc1ccc(-c2nc(O)nc3ccccc23)cc1` showed for RAW-Dual (murine macrophage reporter line) is 0.966

The measured IRF reporter that `Cc1cnc2c(c1SCC(=O)N1CCc3ccccc31)c(=O)n(C)c(=O)n2C` showed for RAW-Dual (murine macrophage reporter line) is 1.14
